Tested on: NCI/ADR-RES
Test: Reversal fold, ratio of doxorubicin IC50 to doxorubicin IC50 in presence of test compound for reversal of P-gp mediated multidrug resistance in doxorubicin resistant human MCF-7/ADR cells incubated for 48 hrs by CCK-8 assay; also: test concentration or dose not given here
Format: functional
Task for the reader: assign each of the following compounds its reported Ratio IC50.
One number for each entry.

Here are 5 compounds together with their reported answers.
CHEMICAL_STRUCTURE: COc1cc2c(cc1OC)CN(C(=O)c1cccc(Sc3c[nH]c4ccc(-c5cnn(C)c5)cc34)c1)CC2
Ratio IC50: 46.3
//
CHEMICAL_STRUCTURE: COc1ccc(NC(=O)c2cccc([Se]c3c[nH]c4ncccc34)c2)cc1OC
Ratio IC50: 4.2
//
CHEMICAL_STRUCTURE: CNC(=O)c1ccc2[nH]cc([Se]c3cccc(C(=O)NCc4ccccn4)c3)c2c1
Ratio IC50: 5.7
//
CHEMICAL_STRUCTURE: COc1ccc(NC(=O)c2ccc3[nH]cc([Se]c4cccc(C(=O)NCc5ccccn5)c4)c3c2)cc1
Ratio IC50: 4.4
//
CHEMICAL_STRUCTURE: COc1cc2c(cc1OC)CN(C(=O)c1cccc([Se]c3c[nH]c4ccc(F)cc34)c1)CC2
Ratio IC50: 95.1

Each of the following entries comes with a recorded value; kindly state Ratio IC50 for each.
1. COc1ccc(Cn2cc([Se]c3cccc(C(=O)N4CCc5cc(OC)c(OC)cc5C4)c3)c3ccccc32)cc1
2. COc1cc2c(cc1OC)CN(C(=O)c1cccc([Se]c3c[nH]c4ccc(C(=O)NCCN(C)C)cc34)c1)CC2
3. COc1cc2c(cc1OC)CN(C(=O)c1ccc([Se]c3c[nH]c4ccccc34)cc1)CC2

1. 25.8
2. 7.5
3. 3.06
